The reported measurements were obtained from patent US20260042764A1.

I'd be grateful if you could share measured pIC50 for these entries.
- SYSTEM_NAME: Avi-KRAS G12D (1-169) GppNHp/RAF1 RBD-3xFLAG (52-151) (Homo sapiens, UniProt P01116, G12D)
- Construct: Avi-KRAS G12D (1-169)
- Sequence (P01116 1-169 isoform P01116-2 G12D): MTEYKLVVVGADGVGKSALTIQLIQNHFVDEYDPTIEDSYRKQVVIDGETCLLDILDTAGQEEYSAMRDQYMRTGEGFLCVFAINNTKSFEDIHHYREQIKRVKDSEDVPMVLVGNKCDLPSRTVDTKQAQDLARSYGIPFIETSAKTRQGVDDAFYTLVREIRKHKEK
- ASSAY_OVERVIEW: Raf1-KRAS G12D-GppNHP disruption HTRF assay (Biological Example 1)
- Assay type: binding
- CONDITION_NOTES: KRAS G12D, GppNHp-loaded; Table 11
pIC50: −log10 of the molar value.

response.value for N#Cc1c(N)sc2c(F)ccc(-c3c(C(F)(F)F)cc4c(N5CC6CCC(C5)O6)nc(OC[C@@]56CCCN5C[C@H](F)C6)nc4c3F)c12 [Compound 130] (field: pIC50) = 6.00 to 7.00

response.value for CCN(CCC#N)c1nc(OC[C@@]23CCCN2C[C@H](F)C3)nc2c(F)c(-c3ccc(F)c4sc(N)c(C#N)c34)c(C(F)(F)F)cc12 [Compound 166] (field: pIC50) = 6.00 to 7.00

response.value for CN(c1nc(OC[C@@]23CCCN2C[C@H](F)C3)nc2c(F)c(-c3ccc(F)c4sc(N)c(C#N)c34)c(C(F)(F)F)cc12)[C@H]1C[C@@H](O)C1 [Compound 18] (field: pIC50) = > 7.00
